# MEASUREMENT_DESCRIPTION: Solution stability test (residual ratio and generation of active form in buffers of pH 2.0 to 9.0)
# Format: physicochemical
# ASSAY_CONDITIONS: pH5.0 buffer, 25° C., 25 umol/L, 3 hr
Structures can show the parent of a compound that is named as a salt.
Please go through the items and note down their Residual ratio.

Prompt: Bench note: what Residual ratio did Cc1cc(OC(=O)NCCNCC(=O)O)c2ccccc2c1OC(=O)NCCNCC(=O)O [Example 2, dihydrochloride] show?
Completion: 101%

Prompt: Same for C[C@H]1COc2c1c(OC(=O)NCCNCC(=O)O)c(OC(=O)NCCNCC(=O)O)c1c3c(ccc21)C(C)(C)CCC3 [Example 12, dihydrochloride]
Completion: 99.1%

Prompt: Same for NCCCNC(=O)Oc1c(OC(=O)NCCCN)c(-c2ccccc2)c2c(c1-c1ccccc1)OCO2
Completion: 100%

Prompt: Same for CC(=O)c1cc2c(O)c3c(O)cccc3c(OC(=O)NCCCN)c2o1 [Reference Example 9, hydrochloride]
Completion: 104%

Prompt: Same for C[C@H]1COc2c1c(OC(=O)NCCCNCC(=O)O)c(OC(=O)NCCCNCC(=O)O)c1c3c(ccc21)C(C)(C)CCC3 [Example 13, dihydrochloride]
Completion: 99.4%

Prompt: Same for CN1CC[C@H](c2c(OC(=O)N(C)CCN)cc(O)c3c(=O)cc(-c4ccccc4Cl)oc23)[C@H](O)C1
Completion: 98.2%

Prompt: Same for CC(=O)c1cc2c(OC(=O)NCCNCC(=O)O)c3ccsc3c(OC(=O)NCCNCC(=O)O)c2o1 [Example 1, dihydrochloride]
Completion: 6.6%
